Experiment: Metabolic stability in mouse liver microsomes assessed as parent compound remaining measured after 45 mins in presence of NADPH regenerating system by LC-MS/MS analysis
Type: ADME, Microsome
Conditions: read-out: Stability
Measure Name: remaining at 0.75 h (%)
Give a bare numeral; the unit % is implied.

Sample CCC(CC)O[C@@H]1C=C(C(=O)OCCN2CCOCC2)C[C@H](N)[C@H]1NC(C)=O ; remaining at 0.75 h observed: 83
